Assignment: determine reported Mean arterial pressure, before bleeding for the given substances.
# Tested on: hypovolemic shock (severe hypotension induced by bleeding) in rats
# test.summary: Hypovolemic shock by bleeding in anesthetized rats: mean arterial pressure and survival after i.v. bolus
# Format: in vivo, female Wistar rats
# assay.setup: group later given 160 μg/kg i.v., baseline before bleeding, mean ± S.E.
I only need the number, in mm Hg, no unit after it.

[Q] Give its Mean arterial pressure, before bleeding value. Item: ACTH (1-39) (SYSMEHFRWGKPVGKKRRPVKVYPNGAEDESAEAFPLEF; Corticotropin; UniProt P01189 138-176, looked up) [ACTH-(1-39), full-length ACTH (1-39)]
[A] 88.25

[Q] Another substance: ACTH (1-16) (SYSMEHFRWGKPVGKK; Corticotropin; UniProt P01189 138-153, looked up, fragment) [ACTH-(1-16)]
[A] 78.25

[Q] Then ACTH (1-13) (SYSMEHFRWGKPV; Corticotropin; UniProt P01189 138-150, looked up, fragment) [ACTH-(1-13)] ?
[A] 66.25

[Q] Could you do the same for ACTH (1-18) (SYSMEHFRWGKPVGKKRR; Corticotropin; UniProt P01189 138-155, looked up, fragment) [ACTH-(1-18)] , please?
[A] 53.00

[Q] One more substance: ACTH (4-10) (MEHFRWG; Corticotropin; UniProt P01189 141-147, looked up, fragment) [ACTH-(4-10)]
[A] 63.25

[Q] Field entry: ACTH(25-39) (NGAEDESAEAFPLEF; Corticotropin; UniProt P01189 162-176, looked up, fragment)
[A] 78.17
